Origin of values: the RepoRT retention time repository

Experiment: HILIC, Waters ACQUITY UPLC BEH Amide, 100 × 2.1 mm, 1.7 µm; A: water + 0.125% formic acid + 10 mM ammonium formate; B: 5% water + 95% acetonitrile + 0.125% formic acid + 10 mM ammonium formate; gradient (min/%B) 0/100 2/100 7.7/70 9.5/40 10.25/30 12.75/100 17/100
Conditions: stereoisomer not certain
Use t when the recorded LC retention time is no lower than 5 min; use f when it is lower.

MOLECULE: CC(C)CCCC(C)C1CCC2C3C(O)C=C4CC(O)CCC4(C)C3CCC12C (centres undefined)
ASSIGNED LABEL: f
--
MOLECULE: Oc1ccc(C2CNCCc3c2cc(O)c(O)c3Cl)cc1 (centres undefined)
ASSIGNED LABEL: t

Then this molecule:
Incoming: Please check the record `Nc1ccc(O)cc1` and state if its LC retention time is at or above 5 min.
Outgoing: f
